- RUN DESCRIPTION: in vitro;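 note: Apical-to-basolateral permeability measured in Caco-2 cells at day 21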
- PARTICULARS: human, Caco-2
Exercise: state measured Papp A→B at 10 µM for each of the compounds provided.
Answer format: numeric, ×10⁻⁶ cm/s implied, no suffix.

Please give the measured Papp A→B at 10 µM for this compound: CCCC1(c2ccc3[nH]ccc3c2)CCNC1 (configuration not stated)
16.5

Please give the measured Papp A→B at 10 µM for this compound: Clc1ccc([C@]23CNC[C@H]2C3)cc1Cl
2.9
